- System: weeds
- PROTOCOL_SUMMARY: Glasshouse weed control, HST inhibitors alone and with A22, post-emergence
- Type: in vivo
- TEST_SETTINGS: BRAPL, 14 DAT, 250 g/ha alone, single replicate
- Description: In a further test, the results of which are depicted in tables 18 and 19, weed seeds are planted out in trays containing 50% peat/50% John Innes no. 3 soil and grown in the glass house at 24-27 C day; 18-21 C night and approximately a 15 h photoperiod. Humidity is ˜65% and light levels at bench level are up to 2 mmol/m^2. […] Plants are assessed at 14 DAT with herbicidal damage scored on a scale from 0 to 100%. […]
OBSERVABLE: % control score, Obs

CC(C)(C)C(=O)Oc1c(-c2c(F)ccc(Cl)c2Cl)c(=O)n(CC(F)F)c2nccnc12 [Compound 2.25] = 60%
CC(C)C(=O)Oc1c(-c2c(Cl)cccc2C(F)(F)F)c(=O)n(CC(F)F)c2nccnc12 [Compound 2.28] = 75%
C#Cn1c(=O)c(-c2c(F)ccc(F)c2Cl)c(O)c2nccnc21 [Compound 2.18] = 80%
O=c1c(-c2c(F)ccc(F)c2Cl)c(O)c2nccnc2n1CC(F)F [Compound 2.3] = 70%

---

- TARGET_OR_TEST_SYSTEM: Chlamydomonas HST (Chlamydomonas reinhardtii)
- Construct: GST (N); made in house; host or cells: E. coli (BL21A1 / BL21DE3), membrane fraction
- Sequence (A1JHN0 51-370): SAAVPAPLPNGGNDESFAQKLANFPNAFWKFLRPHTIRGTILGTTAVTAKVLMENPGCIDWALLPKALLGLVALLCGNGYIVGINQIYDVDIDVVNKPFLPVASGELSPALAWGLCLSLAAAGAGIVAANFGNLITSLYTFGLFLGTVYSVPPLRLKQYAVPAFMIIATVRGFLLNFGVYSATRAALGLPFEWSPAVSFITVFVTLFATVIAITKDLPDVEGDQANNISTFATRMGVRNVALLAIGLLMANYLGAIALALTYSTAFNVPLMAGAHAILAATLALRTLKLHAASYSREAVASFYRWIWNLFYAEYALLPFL
- PROTOCOL_SUMMARY: HST assay (TLC, MFBQ formed), recombinant Chlamydomonas HST in E. coli membranes
- Assay type: biochemical
- TEST_SETTINGS: 10 ppm; TLC, estimated amount of MFBQ formed, relative to controls
- Method: Alternatively, Arabidopsis and Chlamydomonas mature HST coding sequences are cloned as GST N-terminal fusion enzymes and expressed in E. coli. E. coli. […] Prenyltransferase (HST) activities are measured by determining the prenylation rates of [U—^14C]homogentisate using farnesyl diphosphate (FDP) as prenyl donor. ^14C homogentisate is prepared from ^14C tyrosine using L amino acid oxidase and HPPD. […]
Label Yes when Chlamydomonas. HST % I at 10 ppm is at or above 40%; anything below gets No.

Cc1cc(C)c(-c2c(O)c3nccnc3n(C)c2=O)c(C)c1 [Compound 2.2] = Yes
Oc1c(Cl)c(F)nc(F)c1Cl [Compound 1.1, haloxydine] = Yes
O=c1[nH]c2nccnc2c(O)c1-c1c(F)ccc(Br)c1Cl [Compound 2.1] = No
Cn1c(=O)c(-c2c(F)ccc(F)c2Cl)c(O)c2nccnc21 [Compound 2.4] = No
Nc1nc[nH]n1 [Amitrole, reference compound] = No
Cn1c(=O)c(-c2c(F)ccc(Br)c2Cl)c(O)c2nccnc21 [Compound 2.5] = Yes
CN1CC(c2c(F)ccc(F)c2Cl)=C(O)c2ncccc21 [Compound 4.1] = No
O=c1[nH]c2nccnc2c(O)c1-c1ccccc1OC(F)(F)F [Compound 2.6] = No
O=c1[nH]c2nccnc2c(O)c1-c1c(F)ccc(F)c1Cl [Compound 2.7] = No
